Every entry's value here was drawn from patent US9464092B2.

Hi there, I'd appreciate the recorded pIC50 for every entry that follows.
# system: CDK2/CyclinA (Homo sapiens (Human))
# protocol-text: CDK2/CyclinA kinase assay (Nanosyn, Caliper microfluidic)
# Type: biochemical
# stated-conditions: Table 2; read-out: CDK2/CycA IC50
In simple prose, pIC50 is minus the logarithm base ten of a concentration in moles per litre.

The compound identified as CC1CN(c2ccc(Nc3ncc4cc5n(c4n3)C3(CCCC3)CNC5=O)nc2)CC(C)N1CCC(C)(C)C (stereo not shown) registered its pIC50 at 5.58

The compound identified as CC(C)N1CCN(c2ccc(Nc3ncc4cc5n(c4n3)C3(CCCCC3)CNC5=O)nc2)C[C@H]1C registered its pIC50 at 5.83

The compound identified as CCN(CC)C1CCN(c2ccc(Nc3ncc4cc5n(c4n3)C3(CCCCC3)CNC5=O)nc2)CC1 registered its pIC50 at 6.12

The compound identified as O=C1NCC2(CCCCC2)n2c1cc1cnc(Nc3ccc(C(=O)N4CCNCC4)cn3)nc12 registered its pIC50 at 7.21
